B1: LINE1-mini (parent)
chain: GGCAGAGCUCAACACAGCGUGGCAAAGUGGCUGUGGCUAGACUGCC

- Variants of: B1
- Assay info: self-cleavage, relative activity (ratio to wild type); higher = more cleavage; in vitro, sequencing; the parent is a self-cleaving ribozyme
Task for the reader: assign each of the following variants its reported self-cleavage.

Lookup: State the recorded self-cleavage for this entry: U38A A39G
Found: 0.25

Lookup: State the recorded self-cleavage for this entry: A4C C45U
Found: 0.2

Lookup: State the recorded self-cleavage for this entry: G2A G22U
Found: 0.89

Lookup: State the recorded self-cleavage for this entry: G36A G40C
Found: 0.27

Lookup: State the recorded self-cleavage for this entry: G2C G44C
Found: 0.18

Lookup: State the recorded self-cleavage for this entry: G33C A41C
Found: 0.05

Lookup: State the recorded self-cleavage for this entry: G7C C31G
Found: 0.06

Lookup: State the recorded self-cleavage for this entry: C10U C23U
Found: 0.43

Lookup: State the recorded self-cleavage for this entry: A16G U28A
Found: 0.53

Lookup: State the recorded self-cleavage for this entry: U9G A41G
Found: 0.08

Lookup: State the recorded self-cleavage for this entry: A14U U43A
Found: 0.16

Lookup: State the recorded self-cleavage for this entry: C3U A4U
Found: 0.15

Lookup: State the recorded self-cleavage for this entry: C13G G17A
Found: 0.06

Lookup: State the recorded self-cleavage for this entry: C13G A39G
Found: 0.09

Lookup: State the recorded self-cleavage for this entry: G5A G19U
Found: 0.11

Lookup: State the recorded self-cleavage for this entry: C10U A12U
Found: 0.08

Lookup: State the recorded self-cleavage for this entry: G17A G30U
Found: 0.2

Lookup: State the recorded self-cleavage for this entry: G2U G35C
Found: 0.05

Lookup: State the recorded self-cleavage for this entry: U9A U28C
Found: 0.1

Lookup: State the recorded self-cleavage for this entry: G29U U34A
Found: 0.37

Lookup: State the recorded self-cleavage for this entry: C15U G29A
Found: 1.1

Lookup: State the recorded self-cleavage for this entry: G21A C23A
Found: 1.07

Lookup: State the recorded self-cleavage for this entry: C10G G30U
Found: 0.22

Lookup: State the recorded self-cleavage for this entry: G33U U34G
Found: 0.05

Lookup: State the recorded self-cleavage for this entry: C8G U20A
Found: 0.08

Lookup: State the recorded self-cleavage for this entry: G35U U38C
Found: 0.09

Lookup: State the recorded self-cleavage for this entry: G21C A26G
Found: 0.35

Lookup: State the recorded self-cleavage for this entry: G19A G22C
Found: 0.71

Lookup: State the recorded self-cleavage for this entry: C10A A24G
Found: 0.06

Lookup: State the recorded self-cleavage for this entry: C10U G17U
Found: 0.33

Lookup: State the recorded self-cleavage for this entry: U38A U43A
Found: 0.03

Lookup: State the recorded self-cleavage for this entry: A26U G29U
Found: 1.61

Lookup: State the recorded self-cleavage for this entry: A6U G30A
Found: 1.65

Lookup: State the recorded self-cleavage for this entry: A12G U43C
Found: 0.03

Lookup: State the recorded self-cleavage for this entry: `G30U`
Found: 1.62

Lookup: State the recorded self-cleavage for this entry: A16C C18U
Found: 0.09

Lookup: State the recorded self-cleavage for this entry: C3U G19U
Found: 0.32

Lookup: State the recorded self-cleavage for this entry: C13U C15G
Found: 0.08

Lookup: State the recorded self-cleavage for this entry: G33U U34C
Found: 0.23

Lookup: State the recorded self-cleavage for this entry: U20A A25C
Found: 0.61
